Parameter inhibition at 10 µM: see the listing below.
Biological target: MAO-B (Homo sapiens, UniProt P27338)
Construct: purchased Merck MAK296
Sequence (P27338 whole entry, species assumed): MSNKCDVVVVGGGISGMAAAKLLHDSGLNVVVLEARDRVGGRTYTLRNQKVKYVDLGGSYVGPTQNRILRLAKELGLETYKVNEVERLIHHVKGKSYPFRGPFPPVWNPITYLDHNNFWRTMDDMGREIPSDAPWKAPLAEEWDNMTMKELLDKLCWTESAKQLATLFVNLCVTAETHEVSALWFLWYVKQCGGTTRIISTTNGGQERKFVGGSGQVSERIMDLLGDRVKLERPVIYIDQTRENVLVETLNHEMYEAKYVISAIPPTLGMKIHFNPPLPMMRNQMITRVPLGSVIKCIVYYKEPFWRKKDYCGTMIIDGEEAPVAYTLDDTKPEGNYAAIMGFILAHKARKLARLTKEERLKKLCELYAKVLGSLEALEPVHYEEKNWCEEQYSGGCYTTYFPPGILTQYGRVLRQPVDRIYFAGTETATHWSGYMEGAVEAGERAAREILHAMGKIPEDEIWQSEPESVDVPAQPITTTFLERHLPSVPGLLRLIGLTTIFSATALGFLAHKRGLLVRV
Assay: Monoamine Oxidase-B Inhibitor Screening Kit (Merck, MAK296), fluorometric assay
Type: biochemical
Conditions: concentration 10 uM
Protocol: The experimental details for determining IC50 are presented in Supporting Information B. To evaluate the IC50 of inhibitors, two fluorometric assays were used: the Monoamine Oxidase-A Inhibitor Screening Kit and the Monoamine Oxidase-B Inhibitor Screening Kit (Merck), according to the manufacturer’s protocol. […] The fluorescence intensity was measured using a plate reader (BioTek Synergy H1) with the following settings: excitation at 535 nm and emission at 587 nm. […]

[
  {
    "compound": "COc1ccc(C2=NN(C(C)=O)C(c3ccccc3)C2)c(O)c1 (stereo not drawn)",
    "inhibition at 10 µM / %": 0
  },
  {
    "compound": "Cc1cc(=O)oc2c(C)c(OCc3nnc(S)n3-c3ccc(Br)cc3)ccc12",
    "inhibition at 10 µM / %": 30.3
  },
  {
    "compound": "Cc1nnc2c(Cc3ccccc3)nc3ccccc3n12",
    "inhibition at 10 µM / %": 0
  },
  {
    "compound": "CC(=O)Nc1ccc2c(c1)-c1ccccc1C2=O",
    "inhibition at 10 µM / %": 0
  },
  {
    "compound": "Cc1c(-c2ccccc2)c(=O)oc2cc(OS(=O)(=O)c3ccc(Br)cc3)ccc12",
    "inhibition at 10 µM / %": 0
  },
  {
    "compound": "O=C(Cn1c(=O)oc2ccccc21)Nc1nnc(SCc2ccccc2)s1",
    "inhibition at 10 µM / %": 0
  },
  {
    "compound": "Fc1ccc(-c2ccc3c(c2)[nH]c2ccncc23)cn1",
    "inhibition at 10 µM / %": 37.9
  },
  {
    "compound": "CC(=O)NCC1CN(c2ccc(N3CCOCC3)c(F)c2)C(=O)O1 (stereo not drawn)",
    "inhibition at 10 µM / %": 81
  },
  {
    "compound": "Cc1nc(Nc2ncc3c(n2)CC(C)CC3=O)nc2ccccc12 (stereo not drawn)",
    "inhibition at 10 µM / %": 21
  }
]

----------
Target: MAO-B (Homo sapiens)
Construct: purchased Merck MAK296
Assay: Monoamine Oxidase-B Inhibitor Screening Kit (Merck, MAK296), fluorometric assay
Format: biochemical
Conditions: concentration 100 uM

[
  {
    "compound": "Cc1nc(Nc2ncc3c(n2)CC(C)CC3=O)nc2ccccc12 (stereo not drawn)",
    "target.or.test.system": "MAO-B (Homo sapiens)",
    "inhibition at 100 µM, %": 77.5
  },
  {
    "compound": "Cc1c(-c2ccccc2)c(=O)oc2cc(OS(=O)(=O)c3ccc(Br)cc3)ccc12",
    "target.or.test.system": "MAO-B (Homo sapiens)",
    "inhibition at 100 µM, %": 27.3
  },
  {
    "compound": "Cc1ccc(/C=N/Nc2nc3ccccc3nc2Cc2ccccc2)cc1",
    "target.or.test.system": "MAO-B (Homo sapiens)",
    "inhibition at 100 µM, %": 0
  },
  {
    "compound": "Cc1nnc2c(Cc3ccccc3)nc3ccccc3n12",
    "target.or.test.system": "MAO-B (Homo sapiens)",
    "inhibition at 100 µM, %": 0
  },
  {
    "compound": "CCc1ccc(Nc2ncc3c(n2)CC(C)CC3=O)cc1 (stereo not drawn)",
    "target.or.test.system": "MAO-B (Homo sapiens)",
    "inhibition at 100 µM, %": 96.4
  },
  {
    "compound": "Clc1ccc(/C=N/c2ccc3[nH]ncc3c2)c(Cl)c1",
    "target.or.test.system": "MAO-B (Homo sapiens)",
    "inhibition at 100 µM, %": 84.4
  },
  {
    "compound": "O=c1c(-c2ccccc2)coc2cc(O)cc(O)c12",
    "target.or.test.system": "MAO-B (Homo sapiens)",
    "inhibition at 100 µM, %": 87.3
  },
  {
    "compound": "COc1ccc(C2=NN(C(C)=O)C(c3ccccc3)C2)c(O)c1 (stereo not drawn)",
    "target.or.test.system": "MAO-B (Homo sapiens)",
    "inhibition at 100 µM, %": 0
  },
  {
    "compound": "O=C(Nc1ccc(Cl)cc1)C1=Cc2ccccc2OC1",
    "target.or.test.system": "MAO-B (Homo sapiens)",
    "inhibition at 100 µM, %": 91.2
  },
  {
    "compound": "CC(=O)Nc1ccc2c(c1)-c1ccccc1C2=O",
    "target.or.test.system": "MAO-B (Homo sapiens)",
    "inhibition at 100 µM, %": 27.7
  },
  {
    "compound": "Fc1ccc(-c2ccc3c(c2)[nH]c2ccncc23)cn1",
    "target.or.test.system": "MAO-B (Homo sapiens)",
    "inhibition at 100 µM, %": 81.3
  },
  {
    "compound": "CC(=O)NCC1CN(c2ccc(N3CCOCC3)c(F)c2)C(=O)O1 (stereo not drawn)",
    "target.or.test.system": "MAO-B (Homo sapiens)",
    "inhibition at 100 µM, %": 97.3
  },
  {
    "compound": "Cc1cc(=O)oc2cc(OCC(=O)N/N=C/c3ccccc3)ccc12",
    "target.or.test.system": "MAO-B (Homo sapiens)",
    "inhibition at 100 µM, %": 0
  },
  {
    "compound": "O=C(Cn1c(=O)oc2ccccc21)Nc1nnc(SCc2ccccc2)s1",
    "target.or.test.system": "MAO-B (Homo sapiens)",
    "inhibition at 100 µM, %": 0
  },
  {
    "compound": "Cc1csc(N/N=C/c2cc(Cl)ccc2Cl)n1",
    "target.or.test.system": "MAO-B (Homo sapiens)",
    "inhibition at 100 µM, %": 39.5
  },
  {
    "compound": "COc1ccc(C2SCC(=O)N2NC(=O)COc2ccc3c(C)cc(=O)oc3c2)cc1 (stereo not drawn)",
    "target.or.test.system": "MAO-B (Homo sapiens)",
    "inhibition at 100 µM, %": 46.3
  },
  {
    "compound": "O=c1oc2cc(OCc3cccc(Cl)c3)ccc2c2c1CCC2",
    "target.or.test.system": "MAO-B (Homo sapiens)",
    "inhibition at 100 µM, %": 98
  },
  {
    "compound": "Cc1cc(=O)oc2c(C)c(OCc3nnc(S)n3-c3ccc(Br)cc3)ccc12",
    "target.or.test.system": "MAO-B (Homo sapiens)",
    "inhibition at 100 µM, %": 105
  }
]

----------
// reported inhibition at 100 µM per item
Target: MAO-A (Homo sapiens)
Construct: purchased Merck MAK295
Sequence (P21397 1-527): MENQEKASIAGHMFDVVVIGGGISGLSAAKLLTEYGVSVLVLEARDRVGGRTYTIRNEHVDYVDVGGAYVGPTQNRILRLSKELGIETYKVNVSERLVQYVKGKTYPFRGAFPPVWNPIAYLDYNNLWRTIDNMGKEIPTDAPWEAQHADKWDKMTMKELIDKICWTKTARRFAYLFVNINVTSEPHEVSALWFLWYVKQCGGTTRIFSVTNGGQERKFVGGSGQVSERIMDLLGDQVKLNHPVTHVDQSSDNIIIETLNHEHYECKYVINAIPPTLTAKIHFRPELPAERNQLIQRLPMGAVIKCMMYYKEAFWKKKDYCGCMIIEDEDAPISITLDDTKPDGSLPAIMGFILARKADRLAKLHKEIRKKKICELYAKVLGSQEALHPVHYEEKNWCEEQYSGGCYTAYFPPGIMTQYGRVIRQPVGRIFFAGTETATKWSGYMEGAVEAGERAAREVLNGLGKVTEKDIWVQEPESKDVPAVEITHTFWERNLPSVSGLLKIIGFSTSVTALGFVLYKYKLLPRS
Assay: Monoamine Oxidase-A Inhibitor Screening Kit (Merck, MAK295), fluorometric assay
Format: biochemical
Settings: concentration 100 uM
assay.metric: inhibition at 100 µM (%)

[
  {
    "molecule": "O=C(Cn1c(=O)oc2ccccc21)Nc1nnc(SCc2ccccc2)s1",
    "assay.metric": "inhibition at 100 µM",
    "observed.measurement": 15.7
  },
  {
    "molecule": "Fc1ccc(-c2ccc3c(c2)[nH]c2ccncc23)cn1",
    "assay.metric": "inhibition at 100 µM",
    "observed.measurement": 84.2
  },
  {
    "molecule": "Clc1ccc(/C=N/c2ccc3[nH]ncc3c2)c(Cl)c1",
    "assay.metric": "inhibition at 100 µM",
    "observed.measurement": 7.8
  },
  {
    "molecule": "CCc1ccc(Nc2ncc3c(n2)CC(C)CC3=O)cc1 (stereo not drawn)",
    "assay.metric": "inhibition at 100 µM",
    "observed.measurement": 0
  },
  {
    "molecule": "CC(=O)Nc1ccc2c(c1)-c1ccccc1C2=O",
    "assay.metric": "inhibition at 100 µM",
    "observed.measurement": 97.8
  },
  {
    "molecule": "Cc1nc(Nc2ncc3c(n2)CC(C)CC3=O)nc2ccccc12 (stereo not drawn)",
    "assay.metric": "inhibition at 100 µM",
    "observed.measurement": 0
  },
  {
    "molecule": "Cc1csc(N/N=C/c2cc(Cl)ccc2Cl)n1",
    "assay.metric": "inhibition at 100 µM",
    "observed.measurement": 46.7
  },
  {
    "molecule": "O=C(Nc1ccc(Cl)cc1)C1=Cc2ccccc2OC1",
    "assay.metric": "inhibition at 100 µM",
    "observed.measurement": 0
  },
  {
    "molecule": "Cc1cc(=O)oc2c(C)c(OCc3nnc(S)n3-c3ccc(Br)cc3)ccc12",
    "assay.metric": "inhibition at 100 µM",
    "observed.measurement": 84.1
  },
  {
    "molecule": "O=c1oc2cc(OCc3cccc(Cl)c3)ccc2c2c1CCC2",
    "assay.metric": "inhibition at 100 µM",
    "observed.measurement": 0
  },
  {
    "molecule": "COc1ccc(C2=NN(C(C)=O)C(c3ccccc3)C2)c(O)c1 (stereo not drawn)",
    "assay.metric": "inhibition at 100 µM",
    "observed.measurement": 0
  },
  {
    "molecule": "O=c1c(-c2ccccc2)coc2cc(O)cc(O)c12",
    "assay.metric": "inhibition at 100 µM",
    "observed.measurement": 0
  },
  {
    "molecule": "Cc1nnc2c(Cc3ccccc3)nc3ccccc3n12",
    "assay.metric": "inhibition at 100 µM",
    "observed.measurement": 0
  },
  {
    "molecule": "CC(=O)NCC1CN(c2ccc(N3CCOCC3)c(F)c2)C(=O)O1 (stereo not drawn)",
    "assay.metric": "inhibition at 100 µM",
    "observed.measurement": 43.5
  },
  {
    "molecule": "Cc1ccc(/C=N/Nc2nc3ccccc3nc2Cc2ccccc2)cc1",
    "assay.metric": "inhibition at 100 µM",
    "observed.measurement": 0
  },
  {
    "molecule": "Cc1c(-c2ccccc2)c(=O)oc2cc(OS(=O)(=O)c3ccc(Br)cc3)ccc12",
    "assay.metric": "inhibition at 100 µM",
    "observed.measurement": 25.6
  },
  {
    "molecule": "COc1ccc(C2SCC(=O)N2NC(=O)COc2ccc3c(C)cc(=O)oc3c2)cc1 (stereo not drawn)",
    "assay.metric": "inhibition at 100 µM",
    "observed.measurement": 0
  },
  {
    "molecule": "Cc1cc(=O)oc2cc(OCC(=O)N/N=C/c3ccccc3)ccc12",
    "assay.metric": "inhibition at 100 µM",
    "observed.measurement": 0
  }
]
